Cited source: patent US8192717B2

ASSAY PROTOCOL: Radioactivity distribution in mouse body after intravenous administration of radioiodine labeled forms
EXPERIMENTAL PARAMETERS: mouse, intravenous administration, heart, 60 min after administration; mean (SD) of 3 to 5 mice
Distribution of radioactivity, Heart values by entry

Example entries begin here.
compound="Nc1ccc(C=Cc2cc(=O)c3cc([125I])ccc3o2)cc1 [[125I]Compound 46]" test_result="1.64 (0.29) % ID/g"
compound="COc1ccc(-c2cc(=O)c3cc([125I])ccc3o2)cc1 [[125I]Compound 19]" test_result="0.47 (0.22) % ID/g"
compound="CN(C)c1ccc(C=Cc2cc(=O)c3cc([125I])ccc3o2)cc1 [[125I]Compound 48]" test_result="1.42 (0.38) % ID/g"
compound="O=c1cc(-c2ccc(O)cc2)oc2ccc([125I])cc12 [[125I]Compound 20]" test_result="0.12 (0.02) % ID/g"
compound="CN(C)c1ccc(-c2cc(=O)c3cc([125I])ccc3o2)cc1 [[125I]Compound 11]" test_result="1.07 (0.17) % ID/g"

So what does the record say about Distribution of radioactivity, Heart for CNc1ccc(-c2cc(=O)c3cc([125I])ccc3o2)cc1 [[125I]Compound 10] ?
1.28 (0.12) % ID/g

Which measured Distribution of radioactivity, Heart value corresponds to CNc1ccc(C=Cc2cc(=O)c3cc([125I])ccc3o2)cc1 [[125I]Compound 47] ?
1.47 (0.27) % ID/g

Form field: reported Distribution of radioactivity, Heart of COc1cc(/C=C/C(=O)c2cccc([125I])c2)ccc1O [[125I]Compound 31]
1.38 (0.34) % ID/g
